biological target: PKA regulatory subunit R1Alpha (R1A) (Rattus norvegicus, UniProt P09456); construct: gene Prkar1a; endogenous detergent-insoluble R1A clusters in P30 rat CA1 brain sections; test: saturation equilibrium binding in fixed brain sections, confocal fluorescence microscopy
Sequence (P09456 2-381): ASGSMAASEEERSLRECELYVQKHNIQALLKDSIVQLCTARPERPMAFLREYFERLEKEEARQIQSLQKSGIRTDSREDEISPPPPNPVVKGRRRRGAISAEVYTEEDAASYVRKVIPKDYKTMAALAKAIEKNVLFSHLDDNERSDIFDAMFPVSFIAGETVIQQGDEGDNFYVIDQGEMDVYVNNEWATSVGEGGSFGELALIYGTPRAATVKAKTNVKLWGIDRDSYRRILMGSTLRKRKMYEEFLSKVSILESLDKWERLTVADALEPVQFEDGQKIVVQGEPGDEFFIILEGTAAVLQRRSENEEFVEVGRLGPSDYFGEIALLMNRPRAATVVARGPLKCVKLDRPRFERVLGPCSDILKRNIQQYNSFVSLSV
reported.metric: pKd
Units for pKd: none; it is -log10 of a concentration expressed in mol/L.

Fill in the blank: the reported pKd of Nc1ncnc2c1nc(SCC(=O)Nc1ccc3c(c1)C(=O)OC31c3ccc(O)cc3Oc3cc(O)ccc31)n2[C@@H]1O[C@@H]2COP(=O)(O)O[C@H]2[C@H]1O [SAF-cAMP] is ____. 7.63
